ATTRIBUTE_MEASURED: glass transition temperature (°C)
Just the number in °C, nothing appended.

*Nc1cccc(NC(=O)CCCCCCCCC(*)=O)c1 (repeat unit) :: 110.00
*CC(*)OCCCCCCCCCCCOc1ccc(C(=O)Oc2ccc(OCC)cc2)cc1 (repeat unit) :: 37.00

Request: Data request, read-out glass transition temperature, for *CC(C)(C)C1CC=C(*)CC1 (repeat unit)
Response: 77.00

Request: What do we get for *Oc1ccc(/C=C/C(=O)c2ccc(Oc3ccc(C(C)(c4ccccc4)c4ccc(*)cc4)cc3)cc2)cc1 (repeat unit) ?
Response: 167.00

Request: What do we get for *CC(*)(C)C(=O)OCC(O)C1CC(C)(c2ccccc2)C1 (repeat unit) ?
Response: 105.00
